combination Emax values, listed per item
System: CTB-1 (B-Cell Non-Hodgkin's Lymphoma)
Assay: combination Emax (second highest fraction inhibited in the dose matrix, 72 h); higher = more inhibition; extreme values may be limits of the assay
Returns: the value as a bare number; no unit string appended.

CN(CCO)CC[C@H](CSc1ccccc1)Nc1ccc(S(=O)(=O)NC(=O)c2ccc(N3CCC([C@@H](O)c4ccccc4-c4ccc(Cl)cc4)CC3)cc2)cc1S(=O)(=O)C(F)(F)F [AZD4320] + Cn1cnc2c(F)c(Nc3ccc(Br)cc3Cl)c(C(=O)NOCCO)cc21 [Selumetinib] (first compound max 1 µM, 7x7, partner max 3 µM): 0.591

Next item in the queue.
Need combination Emax, item COc1cccc(OCCCN)c1-c1cc(Nc2cnc(C#N)cn2)n[nH]1 [Prexasertib] + CN(C)CCCOc1ccc(-c2ccc3ncc4c(c3c2)n(C2CCOCC2)c(=O)n4C)cn1 [AZD0156] (first compound max 1 µM, 7x7, partner max 1 µM)
0.96
